- Tested on: HLA-DRβ1-Arg74 (Homo sapiens, UniProt P01903+P01911, A100K/A102G/A103R/A169T/F55Y/I96L/K41T/L162R/M171V/P40S/Q125H/Q178H/Q39Y/R42S/S66N/T106N/W38E/Y61H)
- Construct: extracellular portion of the DRB1*0301 β chain fused to the coiled coil region; coiled coil region of the basic leucine zipper domain of JunB; TEV protease cutting site (internal)
- Sequence (P01903 26-216 limits assumed, other chains not shown): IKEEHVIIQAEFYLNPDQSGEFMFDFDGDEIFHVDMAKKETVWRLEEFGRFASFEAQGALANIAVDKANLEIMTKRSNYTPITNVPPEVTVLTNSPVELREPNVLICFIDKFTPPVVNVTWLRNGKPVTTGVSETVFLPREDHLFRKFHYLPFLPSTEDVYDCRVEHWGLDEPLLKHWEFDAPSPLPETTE
- Test name: In Vitro Arg74 Blocking Test (DELFIA immunoassay, APO peptide binding)
- Condition info: 10 μM biotinylated APO; 48 h at 37° C.; serial dilution 0.2 to 0.0125 mM; read-out: approximate IC50, inhibition of APO binding to HLA-DRβ1-Arg74
pIC50: −log10 of the molar value.

| Chem smiles | pIC50 |
| --- | --- |
| COc1ccc2cc1Oc1ccc(cc1)C[C@H]1c3c(cc4c(c3Oc3cc5c(cc3OC)CCN(C)[C@@H]5C2)OCO4)CCN1C | ~4.10 |
